# studySystem: human CYP11B2 (Homo sapiens)
# Sequence (P19099 25-503): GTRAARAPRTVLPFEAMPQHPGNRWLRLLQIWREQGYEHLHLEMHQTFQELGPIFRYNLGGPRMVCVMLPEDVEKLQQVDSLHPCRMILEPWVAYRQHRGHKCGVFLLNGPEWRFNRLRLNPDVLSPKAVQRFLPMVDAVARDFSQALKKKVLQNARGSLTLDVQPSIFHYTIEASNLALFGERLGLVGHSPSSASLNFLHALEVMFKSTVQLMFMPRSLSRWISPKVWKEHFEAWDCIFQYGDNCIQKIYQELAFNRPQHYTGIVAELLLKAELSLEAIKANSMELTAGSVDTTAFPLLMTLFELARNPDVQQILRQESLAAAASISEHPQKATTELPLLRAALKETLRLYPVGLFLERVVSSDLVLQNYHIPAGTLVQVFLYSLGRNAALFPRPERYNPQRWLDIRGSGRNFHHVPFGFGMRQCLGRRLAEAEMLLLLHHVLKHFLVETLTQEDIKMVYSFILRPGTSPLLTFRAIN
# testName: G-402 cellular enzyme assay, human CYP11B2 (aldosterone release, HTRF)
# testContext: G-402 cells expressing human CYP11B2; 1 μM Deoxycorticosterone
pEC50: −log10 of the molar value.
measuredParameter: pEC50

CN1C(=O)CCc2cc(-c3cncc(CNC(=O)c4cccc(Cl)n4)c3)ccc21 : 8.10
CN1C(=O)CCc2cc(-c3cncc(C(C)(C)N)c3)ccc21 : 8.15
CN1C(=O)CCc2cc(-c3cncc(OC4CCN(C(=O)OC(C)(C)C)CC4)c3)ccc21 : 8.52
CCC(=O)N(C)CCOc1cncc(-c2ccc3c(c2)CCC(=O)N3C)c1 : 8.40
Cc1c(CNC(=O)c2ncccc2Cl)cncc1-c1ccc2c(c1)CCC(=O)N2C : 8.22

(I) CCS(=O)(=O)NCc1cncc(-c2ccc3c(c2)CCC(=O)N3)c1
(II) CN1C(=O)CCc2cc(-c3cncc(OCCN4CCCS4(=O)=O)c3)ccc21
(III) CN1C(=O)CCc2cc(-c3cncc(CN4CCCC4=O)c3)ccc21
Challenge: Rank the 3 molecules: largest pEC50 first, smallest last. Dear reader, please state the labels in the requested order.
Response given: II, III, I
(II: 8.70, III: 7.24, I: 6.17)

(1) CN1C(=O)CCc2cc(-c3cncc(CNS(=O)(=O)c4cn(C)cn4)c3)ccc21
(2) CN1C(=O)CCc2cc(-c3cncc(OCCNC(=O)c4ncccc4Cl)c3)c(F)cc21
(3) CC(N[S@+]([O-])C(C)(C)C)c1cncc(-c2ccc3c(c2)CCC(=O)N3C)c1Cl (single isomer, unassigned)
(4) COc1cc(C(=O)N2CC3(C2)CN(c2cncc(-c4ccc5c(c4)CCC(=O)N5C)n2)C3)on1
Challenge: Rank the 4 molecules: largest pEC50 first, smallest last. Dear reader, please state the labels in the requested order.
Response given: 2, 3, 4, 1

(1) CCC(=O)N1CCC(Oc2cncc(-c3ccc4c(c3)CCC(=O)N4C)c2)CC1
(2) CN1C(=O)CCc2cc(-c3cncc(NCc4ccccc4)c3)ccc21
(3) Cc1nnc(C(=O)NCc2cncc(-c3ccc4c(c3)CCC(=O)N4C)c2)o1
Challenge: // smallest pEC50 at index 0, largest at the end Dear reader, please state the labels in the requested order.
Response given: 3, 2, 1
(3: 7.37, 2: 8.70, 1: 9.00)

(P) CC(C)[C@H](CO)Nc1cncc(-c2ccc3c(c2)CCC(=O)N3C)c1
(Q) CCS(=O)(=O)NCCOc1cncc(-c2ccc3c(c2)CCC(=O)N3C)c1
Challenge: Returns: the label, P or Q , whose recorded pEC50 is the lower number. Answer by quoting the chosen item's label.
Response given: P
